# Tested System: T1, KDM7B (PHF8, JHDM1F) dual domain (PHD-JmjC) (UniProt Q9UPP1-2 1-447)
# T1 construct: KDM7B (PHF8, JHDM1F), PHD-finger in tandem with the JmjC demethylase domain; methods are not in the main text; also called KDM7B dual domain
# T1 sequence (Q9UPP1 37-483): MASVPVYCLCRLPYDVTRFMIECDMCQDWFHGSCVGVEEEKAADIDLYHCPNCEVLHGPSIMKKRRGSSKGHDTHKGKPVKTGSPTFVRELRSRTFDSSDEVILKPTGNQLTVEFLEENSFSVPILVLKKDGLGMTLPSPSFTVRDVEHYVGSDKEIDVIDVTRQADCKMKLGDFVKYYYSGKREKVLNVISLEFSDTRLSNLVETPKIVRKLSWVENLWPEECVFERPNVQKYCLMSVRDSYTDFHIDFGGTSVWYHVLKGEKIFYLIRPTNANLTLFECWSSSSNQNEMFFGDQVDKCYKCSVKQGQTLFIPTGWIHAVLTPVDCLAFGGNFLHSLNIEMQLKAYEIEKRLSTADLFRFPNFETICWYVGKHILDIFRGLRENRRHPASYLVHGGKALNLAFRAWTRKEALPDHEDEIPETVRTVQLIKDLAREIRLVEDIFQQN
# Assay Procedure: BLI; association and dissociation of the cyclic peptide (2-fold serial dilution) on the protein; curve fittings with a 1:1 binding model
# Condition Parameters: both partners purified
Bridge positions count the residues as written; N and C are the ends. Ends that are not written are not given here.
Readout Type: Kd (nM)
Write the answer as a number in nM, unit excluded.

Request: # input binder: {CH2CO}-YYLTHPYPSVFRTC (thioether N-14) [OC9, de novo cyclic peptide from mRNA display] ; wanted: its Kd
Response: 6
